Overview of reported EC50 across a group of compounds:
target: REV-ERBα LBD (human; residues 281-614 Δ324-422) (Homo sapiens, UniProt P20393, DEL324-422); construct: 6×Histag-REV-ERBα LBD (human; residues 281-614 Δ324-422); made in house; host or cells: Escherichia coli; assay: TR-FRET corepressor interaction assay (REV-ERBα LBD, FITC-SMRT peptide); assay type: biochemical; conditions: Table 2, read-out: REVERBα agonism (EC50 class, FRET assay)
Sequence (P20393 with tags, fused parts or gaps DEL324-422): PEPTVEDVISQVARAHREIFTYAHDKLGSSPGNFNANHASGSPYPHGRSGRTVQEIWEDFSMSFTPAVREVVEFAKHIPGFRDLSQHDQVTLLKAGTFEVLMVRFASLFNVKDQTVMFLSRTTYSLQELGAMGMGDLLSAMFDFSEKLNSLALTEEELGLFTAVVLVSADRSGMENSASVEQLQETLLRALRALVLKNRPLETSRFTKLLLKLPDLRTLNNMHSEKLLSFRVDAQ
Sequence (Q9Y618 2335-2356 partner limits assumed): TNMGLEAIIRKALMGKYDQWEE

Reference set, count: 5
# compound, target-system, EC50
records = [
    ("CC(C)(C)Cn1cc([C@H](NS(=O)(=O)N2CCC2)C(F)(F)F)c2cc(F)c(-c3ccccc3C(F)(F)F)cc21 [Example 346]", "REV-ERBα LBD (human; residues 281-614 Δ324-422) (Homo sapiens, UniProt P20393, DEL324-422)", "< 500 nM"),
    ("Cc1cc2c(cc1F)c([C@H](NS(=O)(=O)C1CC1)C(F)(F)F)cn2CC(C)C [Example 312]", "REV-ERBα LBD (human; residues 281-614 Δ324-422) (Homo sapiens, UniProt P20393, DEL324-422)", "< 500 nM"),
    ("CN(C)S(=O)(=O)NCCc1cn(Cc2ccccc2Br)c2cc(-c3ccncc3)ccc12 [Example 140]", "REV-ERBα LBD (human; residues 281-614 Δ324-422) (Homo sapiens, UniProt P20393, DEL324-422)", "> 3000 nM"),
    ("CCn1cc(CCNS(=O)(=O)N(C)C)c2ccc(Br)cc21 [Compound 157]", "REV-ERBα LBD (human; residues 281-614 Δ324-422) (Homo sapiens, UniProt P20393, DEL324-422)", "500 to 3000 nM"),
    ("CC(C)Cn1cc(CCNS(=O)(=O)N(C)C)c2ccc(-c3ccnc4ccccc34)cc21 [Compound 37]", "REV-ERBα LBD (human; residues 281-614 Δ324-422) (Homo sapiens, UniProt P20393, DEL324-422)", "< 500 nM"),
]

Give the reported EC50 for this compound. CC(C)C(=O)n1cc(CNS(=O)(=O)N(C)C)c2ccc(-c3ccncc3)cc21 [Example 182]
500 to 3000 nM

Give a short answer stating reported EC50 for CC(C)Cn1cc(CCNS(=O)(=O)N(C)C)c2ccc(-c3cccc([N+](=O)[O-])c3)cc21 [Example 49] .
< 500 nM

Retrieve EC50 measured for CC(C)(C)Cn1cc(CCNS(=O)(=O)C2CC2)c2ccc(-c3cccc(F)c3C(F)(F)F)cc21 [Example 393] and print it.
500 to 3000 nM

Read off the recorded EC50 for CC(C)(C)C(=O)n1cc(CNS(=O)(=O)C(F)(F)F)c2cc(F)c(-c3ccncc3Cl)cc21 [Compound 285]
> 3000 nM

For the compound CC(C)C(=O)n1cc(CNS(=O)(=O)N(C)C)c2ccc(-c3ccccc3Cl)cc21 [Example 183] , report EC50.
500 to 3000 nM

State its EC50 for this compound: CC(C)S(=O)(=O)NCCc1cn(CC(C)(C)C)c2cc(-c3ccncc3Cl)c(F)cc12 [Compound 290]
< 500 nM

Provide measured EC50 value, entry: CC(C)Cn1cc(CCN(C)S(=O)(=O)N(C)C)c2ccc(-c3ccncc3)cc21 [Compound 5]
< 500 nM

Look up EC50 of CC(C)(C)Cn1cc([C@H](NS(=O)(=O)C2CC2)C(F)(F)F)c2ccc(-c3ccc(F)c(C#N)c3)cc21 [Example 387] and report it.
500 to 3000 nM

Item CC(C)Cn1cc([C@H](NS(=O)(=O)C2CC2)C(F)(F)F)c2ccc(Cl)cc21 [Example 341] : provide EC50
< 500 nM

Quote EC50 reported for CC(C)Cn1cc(CCNS(=O)(=O)c2cccnc2)c2ccc(-c3ccncc3)cc21 [Compound 15] please.
500 to 3000 nM

Could you please provide reported EC50 for CC(C)(C)Cc1cn(CCNS(=O)(=O)C2CC2)c2ccc(Br)cc12 [Example 298] ? Thanks!
500 to 3000 nM

Supply reported EC50 belonging to this compound: CC(C)Cn1cc(CCNS(=O)(=O)C2CCCC2)c2ccc(-c3ccncc3)cc21 [Compound 11]
< 500 nM

Report EC50, nothing else, for this compound: CC(C)Cc1cn(CCS(=O)(=O)C(C)C)c2ccc(Br)cc12 [Example 173]
500 to 3000 nM

In one line, give reported EC50 of the entry CC(C)Cn1cc(CC(C)N(C)S(=O)(=O)C(C)C)c2ccc(-c3ccncc3)cc21 (centres unmarked) [Compound 276] .
< 500 nM

Dear colleague, please send me the reported EC50 for CC(C)(C)Cc1cn(CCNS(=O)(=O)C2CC2)c2ccc(-c3cncc4ccccc34)cc12 [Example 218] when you can.
500 to 3000 nM

Output EC50 of CN(C)S(=O)(=O)NCCc1cn(C(=O)C(C)(C)C)c2cc(-c3ccncc3)ccc12 [Compound 156]
> 3000 nM
